Papp A→B at 120 min, 30 µg/mL total polyphenols values, listed per item
Assay: Transport of polyphenols across differentiated Caco-2 monolayers (apical stability, basolateral bioavailability, Papp)
Conditions: human, Caco-2
measured.attribute: Papp A→B at 120 min, 30 µg/mL total polyphenols (×10⁻⁶ cm/s)

1) O=C(O)c1ccc(O)c(O)c1 [Protocatechuic acid] :: 8.4
2) O=c1c(O)c(-c2ccc(O[C@@H]3O[C@H](CO)[C@@H](O)[C@H](O)[C@H]3O)c(O)c2)oc2cc(O)cc(O)c12 [Spiraeoside, quercetin-4′-O-glucoside] :: 5.5

====

Experiment: Transport of polyphenols across differentiated Caco-2 monolayers (apical stability, basolateral bioavailability, Papp)
Settings: human, Caco-2
measured.attribute: bioavailability at 60 min, 60 µg/mL total polyphenols (%)

1) O=c1c(O)c(-c2ccc(O)c(O)c2)oc2cc(O)cc(O)c12 [Quercetin] :: 0.6
